- Test system: HOP-62 NSCLC
- TEST: NCI tumour cell line growth inhibition, 48 h
Measured TGI accompanies every entry in the list below.

// known answers, use as guide
* CC[C@]12C=CCN3CC[C@@]4(c5cc(N=O)c(OC)cc5N(C)[C@H]4[C@@](O)(C(=O)OC)[C@@H]1OC(C)=O)[C@@H]32 | > 100 µM
* COc1cc(OC)cc(OCc2nc3cc(C(F)(F)F)ccc3nc2-c2ccccc2)c1 | > 100 µM
* Cc1ccc(C)n1-c1ccccc1C1C=Cn2c(=O)nnc3c(OC(C)C)c(OC(C)C)c(O)c1c32 (stereo not given) | > 100 µM
* CCn1cc2c(=O)n3ncn(-c4ccc(Br)cc4)c3nc2n1 | > 100 µM

Next item in the queue.
Quickly give me recorded TGI for Cc1cc2c(C(=O)NC[C@H](C)c3ccccc3)c(O)c(O)cc2c(O)c1-c1c(C)cc2c(C(=O)NC[C@H](C)c3ccccc3)c(O)c(O)cc2c1O
2.15 µM

* * *

Each record here notes measured TGI.
- Tested on: MDA-MB-435
- TEST: NCI tumour cell line growth inhibition, 48 h

- C[C@H](C1CC(C)(O)C(C)(O)C(O)O1)[C@H]1CC[C@H]2[C@@H]3[C@@H]4O[C@@H]4[C@@]4(O)CC=CC(=O)[C@]4(C)[C@H]3CC[C@]12C (stereo partly drawn): > 50 µM
- O=C1C2C(C(=O)N1c1ccccc1)C1(c3ccccc3)CCC2(C(=O)c2ccccc2)O1 (stereo not drawn): > 10 µM
- CCCCN1C(=O)C2Cc3c([nH]c4ccccc34)C(c3cccc(O)c3)N2C1=O (stereo not drawn): 32.4 µM

Find the measured TGI of Cc1nn(CNc2ccccc2C(F)(F)F)c(=S)n1/N=C/c1cccc2cccnc12 and report it.
55 µM

State its TGI: N#CC12C(=O)N3C(=NC(c4ccco4)NC3c3ccco3)C1(C#N)C(c1ccco1)NC1=C2CCCC1 (stereo not drawn)
> 100 µM

Kindly indicate its recorded TGI. Item: COC(=O)[C@]12CC3C=CC1N(C3)C(CBr)c1c2n(S(=O)(=O)c2ccccc2)c2ccccc12 (stereo partly drawn)
> 100 µM

Please indicate TGI recorded for C/C=C(\C)c1cc(=O)c2c(C)cc3c(c2o1)C(=O)c1c(O)c(C2CC(C)(N(C)C)C(OC(C)=O)C(C)O2)cc(C2CC(N(C)C)C(O)C(C)O2)c1C3=O (stereo not drawn)
3.45 µM

Quick one: give measured TGI for CCOC(=O)c1cnc(N(C)C)nc1SC(=N)N
> 100 µM

* * *

Entries and their TGI
- Tested on: CCRF-CEM leukemia
- TEST: NCI tumour cell line growth inhibition, 48 h

Worked examples, 3 compounds total:
* NNC(=O)C(=O)N/N=C(\CCCC(=O)Nc1ccc(Cl)cc1)CC(=O)c1ccc(F)cc1 | > 100 µM
* CC(=O)c1nc2ccccc2n1C(C)C(=O)c1ccccc1 (centres undefined) | > 100 µM
* C[C@H](C1CC(C)(O)C(C)(O)C(O)O1)[C@H]1CC[C@H]2[C@@H]3[C@@H]4O[C@@H]4[C@@]4(O)CC=CC(=O)[C@]4(C)[C@H]3CC[C@]12C (some centres undefined) | > 50 µM

We next turn to a different compound, shown below.
Under CCRF-CEM leukemia: report TGI of CCOC(=O)Cc1csc(NC(NC(=O)OCC)(C(=O)OCC)C(F)(F)F)n1 (centres undefined) .
> 100 µM
